Test system: Erk1/2 phosphorylation
Assay Text: Erk1/2 Phosphorylation Assay (western blot), Panc-1
Format: cell-based, human
Settings: at 10 μM, * = activation
Endpoint Label: % inh of Erk1/2 phosphorylation in Panc-1

>  <Molecule>
Cc1c(-c2ccn(C)n2)cn2nc(-c3nccn3C)nc(Nc3cc(OC(F)(F)F)ccn3)c12

>  <Value Reported>
D* (85-100% activation)

$$$$
>  <Molecule>
CO[C@H]1CC[C@H](Nc2nc(-c3nccn3C)nn3cc(-c4ccncc4)c(-c4ccccc4)c23)C1 (racemic)

>  <Value Reported>
D* (85-100% activation)

$$$$
>  <Molecule>
COc1cncnc1Nc1nc(-c2nccn2C)nn2cc(-c3ccn(C)n3)c(C)c12

>  <Value Reported>
D* (85-100% activation)

$$$$
